conditions: in ethanol, 293.15 K
MEASURED PROPERTY: solubility (mole fraction)
Lab note: jot the number down without any unit.

Exam item: If you can, please state the reported solubility (mole fraction) value of `CSCC[C@H](NC(C)=O)C(=O)O` .
Marked response: 0.145

###

details: in ethyl acetate, 323.15 K
MEASURED PROPERTY: solubility (mole fraction)
Lab note: jot the number down without any unit.

Exam item: If you can, please state the reported solubility (mole fraction) value of `CSCC[C@H](NC(C)=O)C(=O)O` .
Marked response: 0.0399

###

details: in n-butyl acetate, 288.15 K
MEASURED PROPERTY: solubility (mole fraction)
Lab note: jot the number down without any unit.

Exam item: If you can, please state the reported solubility (mole fraction) value of `CSCC[C@H](NC(C)=O)C(=O)O` .
Marked response: 0.00346
